- Test system: SF-539 CNS
- assay_info: NCI-60 one-dose screen, 48 h
- run_conditions: 10 µM unless noted
This is part of a sample that, as a whole, favours compounds with a hit. Of some 83,000 tested, about 20% had one in any assay. Calls of active or inactive are those of the source. The calls were made as follows: active = growth percent below 10; inactive = the rest.
Please state which outcome applies, choosing from class 1 for active, class 0 for inactive

// known answers, use as guide
{"compound": "CC1NC(C)c2ccc3ccccc3c2O1 (stereo not drawn)", "target_or_test_system": "SF-539 CNS", "label_class": "class 0"}
{"compound": "COC(=O)c1cc(C(=O)OC)cc([N+](=O)[O-])c1", "target_or_test_system": "SF-539 CNS", "label_class": "class 0"}
{"compound": "CCN(CC)C(CC(=O)c1ccccc1)C(=O)c1ccccc1 (stereo not drawn)", "target_or_test_system": "SF-539 CNS", "label_class": "class 0"}

From here, focus on the item given below.
In this assay, the call recorded for `NCCCCCC(=O)O` was what?
class 0
